Assay notes: gradient 5% acetonitrile 3 min, to 50% in 2 min, to 85% in 15 min, held 3 min, 100 µL/min
Experimental parameters: column: Zorbax Extend-C18 2.1 x 50 mm; eluents: water / acetonitrile, 0.1% formic acid
I'd be grateful if you could share measured RP-LC retention time for these entries.
Kindly answer with a numeric value in s, unit omitted.

Which RP-LC retention time value belongs to CC(NC(=O)c1nnc(-c2ccc(S(=O)(=O)N(C)C)cc2)o1)c1ccccc1 (centres undefined) ?
840

Which RP-LC retention time value belongs to O=C(Cn1ccc2sccc2c1=O)Nc1cccc(Cl)c1 ?
800

Which RP-LC retention time value belongs to COc1ccc(N2CCN(c3ccc4cc(S(=O)(=O)N5CCC(C)CC5)ccc4n3)CC2)cc1 ?
1060

Which RP-LC retention time value belongs to COC(=O)c1c(C)c(C(=O)C(C)N(C(=O)c2ccc(Cl)cc2)C2CC2)c(C)n1C (centres undefined) ?
1030

Which RP-LC retention time value belongs to O=C1N(C2CCN(S(=O)(=O)c3cccnc3)CC2)C(c2ccccc2)C12CCCC2 (centres undefined) ?
912

Which RP-LC retention time value belongs to CCC1(O)C(=O)OCc2c1cc1n(c2=O)Cc2cc3c(N)cccc3nc2-1 (centres undefined) ?
632

Which RP-LC retention time value belongs to CCN1c2ccccc2C(=O)NC12CCN(C(=O)NC1CCCCC1)CC2 ?
771

Which RP-LC retention time value belongs to CN(C)[C@@H]1CN(Cc2ccc(Br)o2)CC[C@@H]1CNC(=O)C1CC1 ?
574

Which RP-LC retention time value belongs to CNC(=O)C1CCCN(c2nc3ncn(CC(=O)Nc4ccccc4C(F)(F)F)c(=O)c3s2)C1 (centres undefined) ?
663

Which RP-LC retention time value belongs to CC(C)Cn1c(=O)c2cc(C(=O)NCCC3CCN(C(C)C)CC3)nn2c2ccccc21 ?
694

Which RP-LC retention time value belongs to CCN1CCN(C(=O)c2cc3n(n2)CC(C)(C(=O)NC2CCCCC2)N(C)C3=O)CC1 (centres undefined) ?
584

Which RP-LC retention time value belongs to COc1ccc(-c2csc(Nc3ccc(S(=O)(=O)Nc4nc(C)cc(C)n4)cc3)n2)cc1C ?
966

Which RP-LC retention time value belongs to CCOc1ccc(-c2nc(CN3CCN(C(=O)NC4CCCCC4)CC3)c(C)o2)cc1 ?
718

Which RP-LC retention time value belongs to Cc1ccc(C)c(NC(=O)N2CCc3nc[nH]c3C2)c1 ?
580

Which RP-LC retention time value belongs to CCC(C)NC(=O)c1sc(-c2cn(C(C)C)c3ncccc23)nc1C (centres undefined) ?
931

Which RP-LC retention time value belongs to O=C(NCc1csc(-c2ccccc2)n1)C1CCN(C(=O)Nc2ccccc2Cl)CC1 ?
822

Which RP-LC retention time value belongs to CCOc1ccc(-c2[nH]ncc2CNS(=O)(=O)Cc2c(F)cccc2Cl)cc1 ?
882

Which RP-LC retention time value belongs to CCN1C(=O)COc2ccc(-c3noc(-c4ccccc4)n3)cc21 ?
1140

Which RP-LC retention time value belongs to CCOC(=O)Cc1c(C)nc2c(-c3cccc(Br)c3)cnn2c1C ?
1250

Just for reference, the METLIN SMRT retention time set (Domingo-Almenara et al. 2019) is where these values come from.
